All figures here come from PubChem BioAssay (NCI).

Give measured TGI for each item. Keep answers brief.
- Tested on: DU-145 prostate
- Assay Procedure: NCI tumour cell line growth inhibition, 48 h
Write the value in µM as a bare number.

## Task Please report the measured TGI for O=C1CC(c2cccc(Cl)c2)Oc2ccccc21 (configuration not stated)
## Result 38.2

## Task Check the records and state TGI for `O=c1[nH]cc(N=Cc2cc(Cl)ccc2O)c(=O)[nH]1`
## Result 66.8

## Task Indicate the recorded TGI value for this compound: O=C1C=CC2(O[C@H](C3CCCCC3)[C@@H](C3CCCCC3)O2)C(SC(=O)c2ccccc2)C1 (some centres not stated)
## Result 10.4

## Task Look up TGI of `C/C(=C\Cc1ccc(F)cc1)CCCCCC/C(C)=C/Cc1ccc(F)cc1` and report it.
## Result 27.8

## Task Specify reported TGI for the compound shown: `Cc1ccc(S(=O)(=O)n2cc([C@@]3(O)C[C@H](CSC#N)OC3=O)c3ccccc32)cc1`
## Result 15.3

## Task Item `O=C1N2CCC[C@H]2CS1(=O)=O` : provide TGI
## Result 35.8

## Task Complete the entry with TGI for `CCCC1=C(OC)C(=O)c2c(C)cc(Cl)nc2C1=O`
## Result 28.6

###

- System: TK-10 renal
- Assay Procedure: NCI tumour cell line growth inhibition, 48 h
Reported Endpoint: GI50

## Task // Input: `COc1cc(/C=C/C(=O)CC(=O)/C=C/c2cc(OC)c(O)c(OC)c2)cc(OC)c1O` . Output its GI50 only.
## Result 34.2 µM

## Task Answer with the recorded GI50 of `CC(C)C[C@H](NC(=O)Cn1cccc(CNC(=O)c2ccccc2)c1=O)B(O)O` only.
## Result 0.55 µM

## Task Give the reported value of GI50 for this record: `CC(C)=Cc1cc(C)c2ccc(C)c3c2c1C(C)=C(O)C3=O`
## Result 44.6 µM

## Task Identify measured GI50 associated with `O=C(O)Cn1c2c(c3c1-c1ccccc1C3=O)C(=O)CCC2`
## Result > 100 µM

## Task Given N#CC1=C(N)NC(N2CCOCC2)=NC12Nc1ccccc1O2 (centres undefined) , respond with its GI50.
## Result 34 µM

## Task Note GI50 for the compound shown: `Cc1nn(C)c2ncnc(N/N=C/c3cccc(O)c3O)c12`
## Result 2.64 µM

## Task State its GI50: `CCN1CCN(c2cc(C(=O)Nc3cccc(Nc4ccc5c(OC)cccc5n4)c3)cc(C(F)(F)F)c2)CC1`
## Result 3.47 µM

## Task Retrieve GI50 measured for `FC(F)c1ncc(-c2ccc(C(F)(F)F)cc2)c(NC2CCCCCC2)n1` and print it.
## Result > 10 µM

## Task Consider the compound `N#C/C(=C/N1CCN(C(=O)c2ccco2)C1=S)C(=O)Nc1ccc(Cl)cc1` . State its measured GI50.
## Result 19.4 µM

## Task Give reported GI50 value for `OCCCCC#Cc1ccccc1C#Cc1cccnc1`
## Result 26.9 µM

## Task State its GI50: `O=C1NC(=O)C(=Cc2cn(Cc3ccccc3)c3ccccc23)C(=O)N1`
## Result 2.16 µM

## Task Please supply the value of reported GI50 for the item Nc1nc(Cl)nc2c1ncn2C1OC(CO)C(O)C1F (centres undefined)
## Result 0.55 µM

## Task Identify the reported GI50 for the following entry. COc1cc(S(=O)(=O)Nc2nc(-c3ccc(N4C(=O)C(C)SC4c4ccccc4O)cc3)cs2)ccc1Cl (centres undefined)
## Result 97.6 µM

## Task # return recorded GI50 for entry `COc1cc2nc(N3CCC[C@H](NC4=CC(=O)c5ccccc5C4=O)C3)nc(N)c2cc1OC`
## Result 2.41 µM

###

- Tested on: UACC-257 melanoma
- Assay Procedure: NCI tumour cell line growth inhibition, 48 h
Reported Endpoint: TGI

## Task Quickly give me recorded TGI for `O=C(O)COc1ccc(OCC(=O)O)cc1`
## Result 18.5 µM

## Task Give the reported value of TGI for this record: NC1CCCCC1NCCNC1CCCCC1N (stereo not given)
## Result > 100 µM

## Task Assign TGI to the following record: CCC1CCCCN1CC(C(C)=O)C(c1ccccc1)c1c(O)c2ccccc2oc1=O (stereo not given)
## Result > 100 µM

## Task Please give the documented TGI of `O=C1C=C(N2CCN(c3ncccn3)CC2)C(=O)c2c(O)ccc(O)c21`
## Result > 100 µM

## Task Kindly indicate its recorded TGI. Item: `COc1cccc(NC(=O)CC(=O)n2nc(-c3ccccc3)c(N=Nc3ccc(Cl)cc3)c2-c2ccccc2)c1`
## Result > 100 µM

## Task Identify measured TGI associated with `O=C1NC(=O)C(=Cc2cn(Cc3ccccc3)c3ccccc23)C(=O)N1`
## Result 35.1 µM

## Task State its TGI: `COc1ccc(-n2c(N)c(C#N)c(C#N)c2-c2ccco2)cc1`
## Result > 100 µM

## Task Look up TGI of O=[N+]([O-])c1ccc(N2N=C(c3c(O)ccc4ccccc34)CC2c2ccc(Cl)cc2)c([N+](=O)[O-])c1 (stereo not given) and report it.
## Result > 100 µM

## Task Supply TGI value. Item: O=C1OC(=O)C23CSCC12C1C=CC3O1 (stereo not given)
## Result > 100 µM

## Task Complete the entry with TGI for `Cc1c(Nc2nccc3cc(CN4CC[C@@H](O)C4)cnc23)cccc1-c1cccc(-c2nc3cc(CN4CC[C@@H](C(=O)O)C4)cc(C#N)c3o2)c1C`
## Result 32.5 µM

###

- System: MOLT-4 leukemia
- Assay Procedure: NCI tumour cell line growth inhibition, 48 h
Reported Endpoint: TGI

## Task Given the compound `COc1ccc(-n2c(N)c(C#N)c(C#N)c2-c2ccco2)cc1` , write its reported TGI.
## Result > 100 µM

## Task Identify measured TGI corresponding to `O=C1N2CCC[C@H]2CS1(=O)=O`
## Result 22.5 µM

## Task Give the measured TGI for CCOC(=O)[C@@]12C(C)=CC(=O)O[C@]1(C)C1C(=O)NC(=O)C12 (stereo partly drawn)
## Result > 100 µM

###

- System: OVCAR-8 ovarian
- Assay Procedure: NCI tumour cell line growth inhibition, 48 h; in the data active = GI50 below about 0.43 µM; inactive = the rest
Your reply should match one of these outcome classes. active, inactive

## Task How was `O=C(O)Cn1c2c(c3c1-c1ccccc1C3=O)C(=O)CCC2` classified in this test?
## Result inactive

## Task Outcome logged for `O=C1NC(=O)C(=Cc2cn(Cc3ccccc3)c3ccccc23)C(=O)N1` in this assay:
## Result inactive

## Task Status in this test for N#CC1=C(N)NC(N2CCOCC2)=NC12Nc1ccccc1O2 (centres undefined) ?
## Result inactive

## Task Please let me know the test result on file for Cc1ccc2oc(=O)c3c(O)c4cccc(OC5OC(C)C6O[C@@H](c7ccccc7)OC6C5OC5OC(C)C(O)C(O)C5O)c4c4oc(=O)c1c2c34 (some centres undefined) .
## Result active

## Task Call for entry `O=c1cc(-c2ccccc2)[nH]c2c1CCCC2` :
## Result inactive

## Task Name the outcome recorded for Fc1ccc2c(c1)C1=C(CCC2)C(c2ccc(Cl)cc2)NC(=S)N1 (centres undefined) in the assay.
## Result inactive

## Task Any idea what this test logged for COc1cc(S(=O)(=O)Nc2nc(-c3ccc(N4C(=O)C(C)SC4c4ccccc4O)cc3)cs2)ccc1Cl (centres undefined) ?
## Result inactive

## Task Check the results log: what was the call for `CCOC(=O)c1c(-c2ccccc2)[n+](=O)c2cc(F)c(F)cc2n1[O-]` ?
## Result inactive

## Task Kindly provide the recorded test outcome for the following compound: O=C1CS/C(=N/S(=O)(=O)c2ccc(N3N=C4c5ccccc5CC4C3c3cccs3)cc2)N1C(=O)c1ccccc1 (centres undefined)
## Result inactive

###

- System: CAKI-1 renal
- Assay Procedure: NCI tumour cell line growth inhibition, 48 h
Label scheme for TGI: lower than 20 µM is 0, 20 µM and above is 1.

## Task Textbook exercise: given the entry Cc1ccc(S(=O)(=O)OCCC2CN(C(=O)OCc3ccccc3)C(C)(C)O2)cc1 (stereo unspecified) , state whether its TGI is greater than or equal to 20 µM.
## Result 1

## Task Please check the record `O=c1cc(-c2ccccc2)oc2c1ccc1[nH]c3ccccc3c(=O)c12` and state if its TGI is at or above 20 µM.
## Result 1

## Task Reported TGI at or above 20 µM? `CCC1=C(C[C@H]2NCCc3cc(OC)c(OC)cc32)C[C@H]2c3cc(OC)c(OC)cc3CCN2C1`
## Result 0

## Task Record `S=C1C(=Nc2ccccc2)N(c2ccccc2)/C(=N\c2cccc[n+]2Cc2ccccc2)N1c1ccccc1` ; criterion: TGI no lower than 20 µM. Met?
## Result 1

## Task Has `CC(CCc1nc2ccccc2s1)(c1ccc(O)cc1)c1ccc(O)cc1` a recorded TGI greater than or equal to 20 µM?
## Result 1

## Task Tell me whether TGI is at least 20 µM here: `Cc1cc(=O)[nH]c(N/N=C/c2ccccc2O)n1`
## Result 1

## Task # bool: TGI of `O=C1NC(=O)C(=Cc2cn(Cc3ccccc3)c3ccccc23)C(=O)N1` >= 20 µM
## Result 0

## Task Kindly determine if TGI recorded for O=CC(O)C(O)C(O)C(O)COC(=O)NCCCCC(=O)C(F)(F)C(F)(F)C(F)(F)C(F)(F)C(F)(F)C(F)(F)C(F)(F)F (stereo unspecified) is above or exactly 20 µM.
## Result 1

## Task Could you please find out whether `CCOC(=O)c1cc2c3c(c(C(C)=O)c(OC)c2[nH]1)N(C(=O)CC)CC3` has TGI that meets 20 µM or exceeds it?
## Result 1

## Task Identify whether the reported TGI of the following compound is 20 µM or greater: O=C1CC(c2cccc(Cl)c2)Oc2ccccc21 (stereo unspecified)
## Result 1

## Task Quick check, TGI >= 20 µM? `O=c1cc(N2CCOCC2)n2c(ccc3ccccc32)n1`
## Result 1

## Task Has CCCCC#Cc1c(I)n(C2OC(CO[Si](C)(C)C(C)(C)C)C3OC(C)(C)OC32)c(=O)n(C(=O)c2ccccc2)c1=O (stereo unspecified) a recorded TGI greater than or equal to 20 µM?
## Result 0

## Task For this compound, is measured TGI 20 µM or higher? CC1CCCC(C#N)(NOC2=NCCN2)C1 (stereo unspecified)
## Result 1

## Task Is the recorded value of TGI equal to or greater than 20 µM for this compound? `Cc1nc(C)c(N2CCN(CN)CC2)c(=O)[nH]1`
## Result 1

## Task Is reported TGI greater than or equal to 20 µM here: `CC(C)=Cc1cc(CCC/C(C)=C/Cc2c(O)cc(C)c(C(=O)O)c2O)co1`
## Result 1

## Task Could you please find out whether `Cn1c2ccccc2n2c3ncccc3c(=O)cc12` has TGI that meets 20 µM or exceeds it?
## Result 1

## Task Decide: is the reported value of TGI for CC(C)OP(=O)(OC(C)C)C(C(C)C)N(C)C(N)=NC#N (stereo unspecified) equal to or greater than 20 µM?
## Result 1

## Task Is TGI for `CN1CCN(C(=O)c2ccc(NC(=O)Nc3ccc(-c4nc(N5CCOCC5)c5cccn5n4)cc3)cc2)CC1` at or above 20 µM?
## Result 0

## Task Entry `Cc1nn(C)c2ncnc(N/N=C/c3cccc(O)c3O)c12` : is its TGI no less than 20 µM?
## Result 0

## Task Please indicate if the recorded TGI for `COc1ccc(/C=c2\[nH]c3nc(=O)c(N4CCCCC4)c(N)n3c2=O)cc1` meets or exceeds 20 µM.
## Result 1

## Task Given the entry O=C1CS/C(=N/S(=O)(=O)c2ccc(N3N=C4c5ccccc5CC4C3c3cccs3)cc2)N1C(=O)c1ccccc1 (stereo unspecified) , answer whether its TGI meets or surpasses 20 µM.
## Result 1

## Task # bool: TGI of `O=C1C=CC(=O)c2c(O)c(N3CCOCC3)c(Cl)c(O)c21` >= 20 µM
## Result 0

## Task Please check the record `COC(=O)/C=C\n1nc(Br)c(=O)[nH]c1=O` and state if its TGI is at or above 20 µM.
## Result 1

## Task For this compound, is measured TGI 20 µM or higher? COc1cc(S(=O)(=O)Nc2ccc(-c3csc(N4C(=O)C(Cl)C4c4ccccc4O)n3)cc2)ccc1Cl (stereo unspecified)
## Result 1

## Task Does the compound Cc1cc(=O)[nH]c(NNC(C#N)c2ccccc2O)n1 (stereo unspecified) have recorded TGI that is 20 µM or more?
## Result 1
